Biological target: Concanavalin-A (Canavalia ensiformis)
Assay: ConA small-molecule binders, primary screen, artefact control for SMM control protein annotation, biochemical, small-molecule microarray, Alexa647 label, 635 nm (AID 1127);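 note: z combines 667 nm emission intensity with signal-to-noise across three replicate slides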
Conditions: ConA-A647 binding fluorescence, higher = more signal

{"compound": "[N-]=[N+]=NCc1ccccc1C[C@]1(C(=O)NCC(O)CO)N=C(c2ccc(OCCCO)cc2)O[C@H]1c1ccccc1 (some centres undefined)", "composite z-score": -0.916}
{"compound": "CN(C)C(=O)[C@@]1(Cc2ccccc2CN=[N+]=[N-])N=C(c2ccc(OCCCO)cc2)O[C@H]1c1ccccc1", "composite z-score": 0.749}
{"compound": "O=C1C2C=CC(C(O)C(c3ccccc3)c3ccccc3)N(n3cnnc3)C2C(=O)N1Cc1ccccc1 (centres undefined)", "composite z-score": 1.07}
{"compound": "CN(C)CCCNC(=O)[C@@]1(c2ccc([N+](=O)[O-])cc2)CC(=O)N(C2CCCCC2)[C@@H]1c1ccc(CO)cc1", "composite z-score": 0.282}
